Each entry below lists one item and its recorded van der Waals contact distance, MASP-2 HIS 483 atom CD2 value.
# experimental.system: MASP-2 CCP2-SP (Homo sapiens (Human), UniProt O00187)
# Sequence (O00187 445-686): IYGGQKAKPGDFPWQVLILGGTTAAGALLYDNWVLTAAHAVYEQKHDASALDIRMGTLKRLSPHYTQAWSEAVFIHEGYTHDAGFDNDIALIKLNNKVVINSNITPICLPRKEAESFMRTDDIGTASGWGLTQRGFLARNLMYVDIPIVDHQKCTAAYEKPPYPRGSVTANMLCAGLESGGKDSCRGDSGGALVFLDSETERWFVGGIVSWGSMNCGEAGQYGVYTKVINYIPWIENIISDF
# Sequence (O00187 364-432 partner): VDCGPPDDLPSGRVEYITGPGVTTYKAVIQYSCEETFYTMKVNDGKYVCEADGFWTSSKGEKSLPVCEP
# experiment.summary: MASP-2 co-crystallization, X-ray crystallography and structure analysis (H-bonds, van der Waals contacts)
# Set-up: unit not given beside the values
# details: Table A2-1
Structures can show the parent of a compound that is named as a salt.
measure.name: van der Waals contact distance, MASP-2 HIS 483 atom CD2

>  <compound>
C[C@H](NC(=O)[C@H](N)CCc1cc(Cl)cc(Cl)c1)C(=O)NCc1ccc(C(=N)N)cc1

>  <measured.value>
3.64

$$$$
>  <compound>
Cc1nc(N)ccc1CNC(=O)[C@H](C)NC(=O)[C@H]1C[C@H](Cc2cccc(Cl)c2)CN1

>  <measured.value>
3.79

$$$$
>  <compound>
C[C@H](NC(=O)[C@H](N)CCc1ccccc1)C(=O)NCc1ccc(C(=N)N)cc1

>  <measured.value>
3.39

$$$$
>  <compound>
CC(=O)Nc1ccc(CCN[C@H](CCc2ccccc2)C(=O)N[C@@H](C)C(=O)NCc2ccc(N)nc2C)cc1 [compound 1368, Dihydrochloride]

>  <measured.value>
3.86

$$$$
>  <compound>
C[C@H](NC(=O)[C@H]1C[C@@H](c2ccccc2)CCN1)C(=O)NCc1cnc2[nH]cc(Cl)c2c1

>  <measured.value>
3.73

$$$$
>  <compound>
C[C@H](NC(=O)[C@H]1Cc2c([nH]c3ccccc23)CN1)C(=O)NCc1ccc(C(=N)N)cc1

>  <measured.value>
3.63

$$$$
>  <compound>
C[C@H](NC(=O)[C@H]1C[C@H](Cc2ccccc2)CN1)C(=O)NCc1cnc2[nH]cc(Cl)c2c1

>  <measured.value>
3.66

$$$$
>  <compound>
C[C@H](NC(=O)[C@H]1C[C@H](c2ccccc2)CN1)C(=O)NCc1ccc(N)nc1

>  <measured.value>
3.63

$$$$
>  <compound>
C[C@H](NC(=O)[C@H]1C[C@H](Cc2ccccc2)CN1)C(=O)NCc1cc(Cl)ccc1-n1cnnn1 [compound 1371, Hydrochloride]

>  <measured.value>
3.55

$$$$
>  <compound>
Cc1nc(N)ccc1CNC(=O)[C@H](C)NC(=O)[C@H]1C[C@H](Cc2ccc(-c3ccccc3)cc2)CN1

>  <measured.value>
3.66

$$$$
>  <compound>
Cc1nc(N)ccc1CNC(=O)[C@H](C)NC(=O)[C@H]1C[C@H](Cc2ccccc2Br)CN1 [compound 1372, Di-trifluoroacetate salt]

>  <measured.value>
3.77

$$$$
>  <compound>
C[C@H](NC(=O)[C@H]1C[C@@H](c2ccccc2)CCN1)C(=O)NCc1ccc(N)nc1 (stereo in doubt)

>  <measured.value>
3.68

$$$$
>  <compound>
Cc1nc(N)ccc1CNC(=O)[C@H](C)NC(=O)c1cc(Cc2ccccc2)n[nH]1

>  <measured.value>
3.71

$$$$
>  <compound>
N=C(N)c1ccc(CNC(=O)[C@@H]2CCN2C(=O)[C@H](NCC(=O)O)C2Cc3ccccc3C2)cc1

>  <measured.value>
3.75

$$$$
>  <compound>
C[C@H](NC(=O)[C@H](N)CCc1ccccc1)C(=O)NCc1ccc(N)nc1

>  <measured.value>
3.38

$$$$
>  <compound>
Cc1nc(N)ccc1CNC(=O)[C@H](C)NC(=O)[C@H]1C[C@H](Cc2cccc(-c3ccccc3)c2)CN1

>  <measured.value>
3.7

$$$$

###

Recorded Ligand-pharmacophore element distance, pharmacophore element CA5 values for a group of compounds are listed next.
# experimental.system: MASP-2 CCP2-SP (Homo sapiens (Human))
# experiment.summary: MASP-2 co-crystallization, X-ray crystallography and structure analysis (H-bonds, van der Waals contacts)
# details: Table A4-1; element CA5
measure.name: Ligand-pharmacophore element distance, pharmacophore element CA5

>  <compound>
Cc1nc(N)ccc1CNC(=O)[C@H](C)NC(=O)[C@H]1C[C@@H](c2cccc3ccccc23)CCN1.Cl.Cl [1297_5]

>  <measured.value>
0

$$$$
>  <compound>
C[C@H](NC(=O)[C@H]1C[C@@H](c2ccccc2)CCN1)C(=O)NCc1cc(Cl)ccc1O.Cl [1078_16]

>  <measured.value>
0

$$$$
>  <compound>
C[C@H](NC(=O)[C@H]1C[C@@H](c2ccccc2)CCN1)C(=O)NCc1cc(Cl)ccc1O.Cl [1078_11]

>  <measured.value>
0

$$$$

###

# experimental.system: UniProt:O00187
# experiment.summary: MASP-2 co-crystallization, X-ray crystallography and structure analysis (H-bonds, van der Waals contacts)
# details: Table A4-1; element C3
Structures can show the parent of a compound that is named as a salt.
Listing: Ligand-pharmacophore element distance, pharmacophore element C3 of selected compounds
measure.name: Ligand-pharmacophore element distance, pharmacophore element C3

>  <compound>
C[C@H](NC(=O)[C@H]1C[C@@H](c2ccccc2)CCN1)C(=O)NCc1cc(Cl)ccc1O.Cl [1078_6]

>  <measured.value>
0

$$$$
>  <compound>
CC(NC(=O)C1CC(Cc2ccccc2)CN1)C(=O)NCc1cnc2c(c1)c(Cl)cn2C.Cl.Cl (centres unmarked) [1450_B]

>  <measured.value>
0

$$$$
>  <compound>
C[C@H](NC(=O)[C@H]1C[C@@H](c2ccccc2)CCN1)C(=O)NCc1cc(Cl)ccc1O.Cl [1078_13]

>  <measured.value>
0

$$$$
>  <compound>
C[C@H](NC(=O)[C@H]1C[C@H](c2ccccc2)CN1)C(=O)NCc1ccc2c(N)nccc2c1

>  <measured.value>
0

$$$$
>  <compound>
C[C@H](NC(=O)[C@H]1C[C@@H](c2ccccc2)CCN1)C(=O)NCc1cc(Cl)ccc1O.Cl [1078_2]

>  <measured.value>
0

$$$$
>  <compound>
C[C@H](NC(=O)[C@@H](CCc1ccccc1)NCc1ccc(C(=O)N2CCOCC2)cc1)C(=O)NCc1ccc(C(=N)N)cc1.Cl.Cl

>  <measured.value>
0

$$$$
>  <compound>
Cc1nc(N)ccc1CNC(=O)[C@H](C)NC(=O)[C@H]1C[C@H](Cc2cccc(Cl)c2)CN1.Cl.Cl [1328_2]

>  <measured.value>
0.15

$$$$
>  <compound>
N=C(N)c1ccc(CNC(=O)C(CF)NC(=O)[C@H](N)CCc2ccccc2)cc1 (some centres unmarked) [compound 1050, Dihydrochloride]

>  <measured.value>
0

$$$$
>  <compound>
C[C@H](NC(=O)[C@H]1C[C@@H](c2ccccc2)CCN1)C(=O)NCc1cc(Cl)ccc1O.Cl [1078_8]

>  <measured.value>
0

$$$$
>  <compound>
Cc1nc(N)ccc1CNC(=O)C(C)NC(=O)C1CC(c2cccc3ccccc23)CCN1.Cl.Cl (centres unmarked) [1297_6]

>  <measured.value>
0.4

$$$$
>  <compound>
C[C@H](NC(=O)[C@H](N)CCCc1ccccc1)C(=O)NCc1ccc(C(=N)N)cc1.Cl.Cl [1042_1]

>  <measured.value>
0

$$$$
>  <compound>
C[C@H](NC(=O)[C@@H](CCc1ccccc1)NCc1ccc(N2CCOCC2)cc1)C(=O)NCc1ccc(C(=N)N)cc1

>  <measured.value>
0

$$$$
>  <compound>
Cc1nc(N)ccc1CNC(=O)[C@H](C)NC(=O)[C@H]1C[C@@H](c2cccc3ccccc23)CCN1.Cl.Cl [1297_4]

>  <measured.value>
0.18

$$$$
>  <compound>
C[C@H](NC(=O)[C@H]1C[C@@H](c2ccccc2)CCN1)C(=O)NCc1cc(Cl)ccc1O.Cl [1078_15]

>  <measured.value>
0

$$$$
>  <compound>
Cc1nc(N)ccc1CNC(=O)[C@H](C)NC(=O)c1cc(Cc2ccccc2)n[nH]1

>  <measured.value>
0.13

$$$$
>  <compound>
Cc1nc(N)ccc1CNC(=O)[C@H](C)NC(=O)[C@H]1C[C@@H](Cc2ccccc2)CCN1

>  <measured.value>
0.13

$$$$
>  <compound>
C[C@H](NC(=O)[C@H]1C[C@@H](c2ccccc2)CCN1)C(=O)NCc1cc(Cl)ccc1O.Cl [1078_5]

>  <measured.value>
0

$$$$

###

# experimental.system: MASP-2 CCP2-SP (Homo sapiens (Human), UniProt O00187)
# experiment.summary: MASP-2 co-crystallization, X-ray crystallography and structure analysis (H-bonds, van der Waals contacts)
# Design: unit not given beside the values
# details: Table A5-1 pharmacophore: distance between elements, S2/S1 region
Structures can show the parent of a compound that is named as a salt.

>  <compound>
C[C@H](NC(=O)[C@H]1C[C@@H](c2ccccc2)CCN1)C(=O)NCc1cc(Cl)ccc1O.Cl [1078_10]

>  <d(O1,O2)>
2.72

$$$$
>  <compound>
C[C@H](NC(=O)[C@H]1C[C@@H](c2ccccc2)CCN1)C(=O)NCc1cc(Cl)ccc1O.Cl [1078_12]

>  <d(O1,O2)>
2.81

$$$$
>  <compound>
CC(NC(=O)C(CCc1ccccc1)NCCCc1ccc(O)cc1)C(=O)NCc1ccc(C(=N)N)cc1.Cl.Cl (centres unmarked) [1145_A]

>  <d(O1,O2)>
3.28

$$$$
>  <compound>
C[C@H](NC(=O)[C@@H](CCc1ccccc1)NCCCc1ccc(O)cc1)C(=O)NCc1ccc(C(=N)N)cc1.Cl.Cl [1145_B]

>  <d(O1,O2)>
3.28

$$$$
>  <compound>
C[C@H](NC(=O)[C@H]1C[C@@H](c2ccccc2)CCN1)C(=O)NCc1cc(Cl)ccc1O.Cl [1078_8]

>  <d(O1,O2)>
2.73

$$$$
>  <compound>
Cc1nc(N)ccc1CNC(=O)C(C)NC(=O)[C@H]1C[C@H](c2cccc(-c3ccccc3)c2)CN1 (stereo in doubt) [compound 1360]

>  <d(O1,O2)>
3.32

$$$$
>  <compound>
C[C@H](NC(=O)[C@H](N)CCc1ccccc1)C(=O)NCc1ccc(N)nc1.Cl.Cl [1007_2]

>  <d(O1,O2)>
3.63

$$$$
>  <compound>
Cc1nc(N)ccc1CNC(=O)[C@H](C)NC(=O)[C@H]1C[C@@H](c2ccccc2)CCN1CCC(=O)O [compound 1411, Trifluoroacetate salt]

>  <d(O1,O2)>
3.50

$$$$
>  <compound>
Cc1nc(N)ccc1CNC(=O)[C@H](C)NC(=O)[C@H]1C[C@@H](c2cccc3ccccc23)CCN1.Cl.Cl [1297_4]

>  <d(O1,O2)>
3.50

$$$$
>  <compound>
Cc1nc(N)ccc1CNC(=O)[C@H](C)NC(=O)[C@H]1C[C@H](Cc2ccc(-c3ccccc3)cc2)CN1 [compound 1351]

>  <d(O1,O2)>
3.38

$$$$
>  <compound>
CC(=O)Nc1ccc(CCN[C@H](CCc2ccccc2)C(=O)N[C@@H](C)C(=O)NCc2ccc(N)nc2C)cc1 [compound 1368, Dihydrochloride]

>  <d(O1,O2)>
7.07

$$$$
